assay: Glass transition temperature by DSC; type: physicochemical; settings: polyhydrazone from polyketone + 0.9 eq ADH; DSC
Response field label: string, one of YES (Tg strictly below 60 °C) or NO.

Below, 3 molecules whose answers are already recorded.
CC(=O)CCC(=O)OCCOCCOC(=O)CCC(C)=O [Polyketone compound (2), Diethyleneglycol Dilevulinate] :: YES
CC(=O)CCC(=O)OCCOC(=O)CCC(C)=O [Polyketone compound (1), Ethyleneglycol Dilevulinate] :: YES
CC(=O)CCC(=O)OC(C)C(C)OC(=O)CCC(C)=O (centres unmarked) [Polyketone compound (7), 2,3-Butanediol Dilevulinate] :: NO

From here, focus on the item given below.
Determine whether this molecule shows Tg lower than 60 °C (ties excluded): CC(=O)CCC(=O)OCCN(CCOC(=O)CCC(C)=O)CCOC(=O)CCC(C)=O [Polyketone compound (6), Triethanolamine Trilevulinate]
YES

###

experiment: Appearance of aqueous composition on hydrazide addition (polyhydrazone formation); format: physicochemical; conditions: appearance in water; polyketone 20% w/v + 0.9 eq ADH
Metric name: Polyhydrazone from 0.9 eq ADH addition

CC(=O)CCC(=O)OCCN(CCOC(=O)CCC(C)=O)CCOC(=O)CCC(C)=O [Polyketone compound (6), Triethanolamine Trilevulinate] :: Clear solution
CC(=O)CCC(=O)OCCOCCOC(=O)CCC(C)=O [Polyketone compound (2), Diethyleneglycol Dilevulinate] :: Clear solution
CC(=O)CCC(=O)OCCOC(=O)CCC(C)=O [Polyketone compound (1), Ethyleneglycol Dilevulinate] :: Clear solution
